Source listed as patent US20110195911A1.

This section presents molecules with their documented TGI values.
# Test system: MCF-7 breast cancer cells
# MEASUREMENT NOTES: MTT cell toxicity assay in MCF-7 breast cancer cells
# Format: cell-based
# PARTICULARS: MCF-7 cells, MTT, final 0.5% FBS, two days with compound; concentration of total growth inhibition (cytostatic)
Where a SMILES comes first, the peptide text is derived from it. The star is where a group is joined. Palmitoyl = CCCCCCCCCCCCCCCC(=O)*
Give the quantity in µM, number only.

molecule="CCCCCCCCCCCCCCCC(=O)N[C@@H](CCCNC(=N)N)C(=O)N[C@@H](CC(N)=O)C(=O)N[C@@H](CC(N)=O)C(=O)N[C@@H](CO)C(=O)N[C@@H](CCCNC(=N)N)C(=O)N[C@@H](CC(C)C)C(=O)NCC(=O)N[C@@H](CC(N)=O)C(=O)NCC(=O)N[C@H](C(=O)N[C@@H](CC(C)C)C(=O)N[C@@H](Cc1ccc(O)cc1)C(=O)N[C@@H](C)C(=O)N[C@@H](CO)C(=O)N[C@H](C(=O)N[C@@H](CC(N)=O)C(N)=O)C(C)C)C(C)C [Peptide 14, Pal-RNNSRLGNGVLYASVN-NH2] (Palmitoyl-RNNSRLGNGVLYASVN-NH2)" metric=TGI number=0.4

Now look at this one.
Input line: Param item = CCCCCCCCCCCCCCCC(=O)N[C@@H](CCCNC(=N)N)C(=O)N[C@@H](CC(N)=O)C(=O)N[C@@H](CC(N)=O)C(=O)N[C@@H](CO)C(=O)N[C@@H](CCCNC(=N)N)C(=O)N[C@@H](CC(C)C)C(=O)NCC(=O)N[C@@H](CC(N)=O)C(=O)NCC(=O)N[C@H](C(=O)N[C@@H](CC(C)C)C(N)=O)C(C)C [Peptide 30, Pal-RNNSRLGNGVL-NH2] (Palmitoyl-RNNSRLGNGVL-NH2) ; retrieve measured TGI.
Output line: 3.7
